# CONDITION DETAILS: in ethanol, 313.15 K

COMPOUND | solubility (mole fraction)
O=CC(NS(=O)(=O)[O-])C(O)C(O)C(O)CO.[Na+] (stereo unspecified) | 0.00046

###

# CONDITION DETAILS: in water, 318.15 K

COMPOUND | solubility (mole fraction)
O=CC(NS(=O)(=O)[O-])C(O)C(O)C(O)CO.[Na+] (stereo unspecified) | 0.0727

###

# CONDITION DETAILS: in methanol, 308.15 K

COMPOUND | solubility (mole fraction)
O=CC(NS(=O)(=O)[O-])C(O)C(O)C(O)CO.[Na+] (stereo unspecified) | 0.00064

###

# CONDITION DETAILS: in ethanol, 308.15 K

COMPOUND | solubility (mole fraction)
O=CC(NS(=O)(=O)[O-])C(O)C(O)C(O)CO.[Na+] (stereo unspecified) | 0.00035

###

# CONDITION DETAILS: in water, 313.15 K

MOLECULE | solubility (mole fraction)
O=CC(NS(=O)(=O)[O-])C(O)C(O)C(O)CO.[Na+] (stereo unspecified) | 0.0601

###

# CONDITION DETAILS: in water, 288.15 K
ENDPOINT: solubility (mole fraction)

MOLECULE | NUMERIC RESULT
O=CC(NS(=O)(=O)[O-])C(O)C(O)C(O)CO.[Na+] (stereo unspecified) | 0.0315

###

# CONDITION DETAILS: in methanol, 293.15 K

COMPOUND | solubility (mole fraction)
O=CC(NS(=O)(=O)[O-])C(O)C(O)C(O)CO.[Na+] (stereo unspecified) | 0.00046

###

# CONDITION DETAILS: in ethanol, 288.15 K

COMPOUND | solubility (mole fraction)
O=CC(NS(=O)(=O)[O-])C(O)C(O)C(O)CO.[Na+] (stereo unspecified) | 8e-05

###

# CONDITION DETAILS: in water, 303.15 K
ENDPOINT: solubility (mole fraction)

COMPOUND | NUMERIC RESULT
O=CC(NS(=O)(=O)[O-])C(O)C(O)C(O)CO.[Na+] (stereo unspecified) | 0.0444

###

# CONDITION DETAILS: in water, 308.15 K

COMPOUND | solubility (mole fraction)
O=CC(NS(=O)(=O)[O-])C(O)C(O)C(O)CO.[Na+] (stereo unspecified) | 0.0514

###

# CONDITION DETAILS: in water, 293.15 K

COMPOUND | solubility (mole fraction)
O=CC(NS(=O)(=O)[O-])C(O)C(O)C(O)CO.[Na+] (stereo unspecified) | 0.0345

###

# CONDITION DETAILS: in ethanol, 293.15 K

MOLECULE | solubility (mole fraction)
O=CC(NS(=O)(=O)[O-])C(O)C(O)C(O)CO.[Na+] (stereo unspecified) | 0.00012

###

# CONDITION DETAILS: in methanol, 288.15 K

COMPOUND | solubility (mole fraction)
O=CC(NS(=O)(=O)[O-])C(O)C(O)C(O)CO.[Na+] (stereo unspecified) | 0.0004

###

# CONDITION DETAILS: in ethanol, 303.15 K

COMPOUND | solubility (mole fraction)
O=CC(NS(=O)(=O)[O-])C(O)C(O)C(O)CO.[Na+] (stereo unspecified) | 0.00027
